Some sequences, each annotated with its measured PBM binding z-score.
Test system: THRa homodimer (NR concentration 90 nM)
Assay Method Text: PBM binding z-score (relative to random genomic background probes); higher = stronger binding; sequences stand for … in GC…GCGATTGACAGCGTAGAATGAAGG

Construct Sequence | PBM binding z-score
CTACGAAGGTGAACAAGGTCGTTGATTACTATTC | 1.08
TAGCGTAGGTCAGATCGGGCCAGTATACGCTATA | -1.02
CGAACCAGGTCATCCAGGACAGTGAATACATTGA | 2.93
CTTGAAAGGTCGTGCTCAGGTGAGTATACCAAAC | 0.803
CCTAGCAGTCCAATCTGGGTCACTCAAGGCTTGA | 0.629
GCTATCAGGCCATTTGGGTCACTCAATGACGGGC | 1.57

----------
Test system: PPARg DBDmut:RXRa IVT, anti-PPARg (DBD mutation: PPARg1 K132A/R137A, NR concentration 270 nM, RXRa partner concentration 90 nM)
Assay Method Text: PBM binding z-score (relative to random genomic background probes); higher = stronger binding; sequences stand for … in GC…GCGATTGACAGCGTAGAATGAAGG
Mark condition not met for PBM binding z-score values under 0.5, and condition met for everything at or above.

Construct Sequence | Category
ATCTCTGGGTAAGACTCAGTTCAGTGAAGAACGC | condition met
ATTTCTAGGTAACAAGTTCAGTGAAAGAGAGGAC | condition met
TGAATGAGGTTAAAGATCAGGTAACGTGGCGTCG | condition met
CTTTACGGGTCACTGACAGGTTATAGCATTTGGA | condition met
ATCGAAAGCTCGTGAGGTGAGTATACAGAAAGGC | condition not met
CAAACTAGGTCGAAGGTCAAAGTCGAGCCAACCA | condition met
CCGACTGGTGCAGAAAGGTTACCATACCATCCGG | condition not met
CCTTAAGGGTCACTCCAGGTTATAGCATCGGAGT | condition not met
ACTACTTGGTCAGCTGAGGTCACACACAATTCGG | condition met
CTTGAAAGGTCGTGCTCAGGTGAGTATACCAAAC | condition met
AAAACGAGGGCACGCTGAGTTGATAGCAGAGTAG | condition not met
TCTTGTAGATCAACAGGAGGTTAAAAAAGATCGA | condition met
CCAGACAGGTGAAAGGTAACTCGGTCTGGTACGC | condition not met
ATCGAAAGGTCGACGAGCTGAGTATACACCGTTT | condition met
CCTTATGGGTCACTCCAGGTTATAGCATCGGAGT | condition met
ATGTCTAGGTAACAAGTTCAGTGAAAGAGAGGAC | condition met
CCGAGTAGGTTATGGTGCATTCAGGCAACGGTGA | condition not met
ATCGAAAGGTCGTGAGGTGAGTATGCAGAAAGGC | condition met
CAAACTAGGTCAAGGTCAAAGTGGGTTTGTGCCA | condition met
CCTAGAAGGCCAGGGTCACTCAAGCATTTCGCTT | condition not met
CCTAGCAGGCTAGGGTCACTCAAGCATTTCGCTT | condition not met
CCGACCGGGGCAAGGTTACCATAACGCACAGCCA | condition not met
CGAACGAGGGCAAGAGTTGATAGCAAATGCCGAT | condition not met
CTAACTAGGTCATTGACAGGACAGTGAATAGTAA | condition met
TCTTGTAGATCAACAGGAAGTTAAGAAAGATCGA | condition not met
CGTCCTAGGTCAATGCTAGGTCAGTGAAAGCATT | condition not met
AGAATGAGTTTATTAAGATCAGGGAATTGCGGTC | condition not met
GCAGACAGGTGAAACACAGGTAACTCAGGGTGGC | condition not met
TCATATAGGTAATACAGGTGAAAGTTGGCATCTA | condition met
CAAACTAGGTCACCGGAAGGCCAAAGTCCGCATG | condition met
CGAACTAGGTCAGAACAGGTCAGTGAAGGATGAT | condition met
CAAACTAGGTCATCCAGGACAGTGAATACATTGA | condition met
CCTAGTTGGTCAGGAGATCACACACCGGATATGA | condition met
ACAGACAGGTGAATGAAGGTAACTCAGCTGGACG | condition met
AGAATGAGGTTATTAAAATCAGGGAATTGCGGTC | condition met
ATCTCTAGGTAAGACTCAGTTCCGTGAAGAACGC | condition not met
TCATATTGGTAAAGGTGAAAGTCGAACGATATGA | condition met
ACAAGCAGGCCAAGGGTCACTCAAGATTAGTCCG | condition not met
TGTCAAAGTTCATAGGTAACGTAAGTATCCACAC | condition met
AATACAGGGTCACTAGGCCAGATTAGGTACGAAT | condition met
GCATATAGGTAATACAAGGTGAAAATCCGATTGT | condition met
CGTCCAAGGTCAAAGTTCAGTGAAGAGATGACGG | condition not met
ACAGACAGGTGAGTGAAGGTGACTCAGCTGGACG | condition not met
CTACCAAGGTGAACAAGTTCGTTGATTACTATTC | condition not met
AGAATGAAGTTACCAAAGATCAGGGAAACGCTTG | condition not met
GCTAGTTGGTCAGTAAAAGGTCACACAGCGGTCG | condition not met
CAAACTAGGTTACAGAGGTCAAAGTCCGTGCGTA | condition met
CGTCCAAGGTCAAGGTCAGTGATAGAGACTCGAA | condition met
ATCCCAAGGTGATCGTGAGGTCGTTGATACTAAC | condition not met
CCGACTGGGGCATAAGGTTACCATGAGCCAGCCC | condition not met
